B1: MLH1 (parent)
chain: YNIATRRKALKNPSEEYGKILEVV

# Variants of: B1
# assayInfo: protein stability index of a GFP-peptide fusion (GPS, HEK-293T) (PSI 1-6); higher = more stable;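 note: lentivirally expressed fusions sorted by FACS into six bins by GFP to DsRed ratio, PSI derived from sequencing read proportions per bin multiplied by bin number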
# conditionsUsed: c terminus: a fixed tail appended
metric: protein stability index
Reply with just the number.

Solved cases (4 shown):
E16S = 2.71
N2D = 3.14
E22K = 2.18
N2T = 2.45

// query protein stability index value for entry `S14N` 2.71

// query protein stability index value for entry `K11M` 2.85

// query protein stability index value for entry `E22Y` 2.27

// query protein stability index value for entry `K19V` 1.74

// query protein stability index value for entry `Y17D` 4.3

Measured values drawn from the supplement of paper PMC10567573 for this set.
